B1: ZNF649 (parent)
chain: YHTGKTPFVCPECGQPCSQKSGLI

Variants of: B1
Protocol Notes: protein stability index of a GFP-peptide fusion (GPS, HEK-293T) (PSI 1-6); higher = more stable;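 further: lentivirally expressed fusions sorted by FACS into six bins by GFP to DsRed ratio, PSI derived from sequencing read proportions per bin multiplied by bin number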
Assay Conditions: c terminus: a fixed tail appended
Below: a set of entries, each annotated with reported protein stability index.
I'd appreciate a reply containing only the number, no unit.

Here is how some variants turned out for protein stability index.
C17Q 1.96
I24T 2.01
E12A 1.96
H2G 1.98
I24N 1.99
K5R 2
C10F 1.98

Q: // protein stability index lookup, key: `H2A`
Result: 1.99
